System: T47D (PI3Kα-H1047R) cell line
TEST_METHOD_NOTES: HTRF phospho-AKT(S473) cell assay in T47D cells
Format: cell-based, human
CONDITIONS_USED: Homo sapiens; HTRF phospho-AKT(S473), T47D (PI3Kα-H1047R) cells, 2 hours compound incubation
pIC50: −log10 of the molar value.
OBSERVATION_TYPE: pIC50

Worked examples follow.
- Cc1cc([C@@H](C)Nc2ccc(Cl)nc2C(=O)NS(C)(=O)=O)c2nc(N3CC[C@@H](c4ccccc4)C3)n(C)c(=O)c2c1: 6.30 to 6.60
- Cc1cc([C@@H](C)Nc2ccc(Cl)nc2C(=O)NS(C)(=O)=O)c2nc(N3C[C@@H]4[C@H](C3)[C@H]4c3noc(C)n3)n(C)c(=O)c2c1: > 6.60
- Cc1cc([C@@H](C)Nc2ccc(Cl)nc2C(=O)NS(C)(=O)=O)c2nc(N3CC[C@H](Oc4ccc(C)nn4)C3)n(C)c(=O)c2c1: > 6.60
- Cc1cc([C@@H](C)Nc2ccc(Cl)nc2C(=O)NS(C)(=O)=O)c2nc(N3CCC[C@H](c4cnccn4)C3)n(C)c(=O)c2c1 (relative stereo): > 6.60

// recorded pIC50 for `Cc1cc([C@@H](C)Nc2ccc(Cl)nc2C(=O)NS(C)(=O)=O)c2nc(N3CC[C@@H](Oc4ncc(F)cn4)C3)n(C)c(=O)c2c1` : > 6.60

The compound `Cc1cc([C@@H](C)Nc2ccc(Cl)nc2C(=O)NS(C)(=O)=O)c2nc(-c3ccc(Oc4cnn(C)c4)nc3)n(C)c(=O)c2c1` showed pIC50 equal to > 6.60
